# system: T1, Homo sapiens factor Bb protein (human, UniProt P00751 260-764)
# T1 construct: Bought from CompTech (A155); also called complement factor Bb; human factor Bb
# T1 sequence (P00751 260-764 limits assumed): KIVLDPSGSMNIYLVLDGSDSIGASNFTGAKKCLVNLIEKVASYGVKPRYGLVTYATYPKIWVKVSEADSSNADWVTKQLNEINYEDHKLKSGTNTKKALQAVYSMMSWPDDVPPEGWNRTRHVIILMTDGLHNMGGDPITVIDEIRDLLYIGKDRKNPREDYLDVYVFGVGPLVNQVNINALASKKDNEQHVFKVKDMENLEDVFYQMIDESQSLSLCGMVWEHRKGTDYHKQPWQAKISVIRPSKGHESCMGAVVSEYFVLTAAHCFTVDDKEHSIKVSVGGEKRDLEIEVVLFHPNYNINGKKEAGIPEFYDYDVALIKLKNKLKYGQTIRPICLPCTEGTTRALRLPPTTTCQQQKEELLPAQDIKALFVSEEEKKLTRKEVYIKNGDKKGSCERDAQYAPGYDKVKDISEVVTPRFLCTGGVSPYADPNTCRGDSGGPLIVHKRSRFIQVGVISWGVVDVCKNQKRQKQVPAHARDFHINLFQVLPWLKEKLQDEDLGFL
# assay_procedure: SPR single cycle kinetics; ratio against VH0/Vκ0
Would you kindly list Relative KD for each of these binders?

INPUT: Quick one: Relative KD of VH1/Vκ1 (antibody, V domains shown) VH: EVQLVESGGGLVKPGGSLRLSCAASGFTFSNYAMSWVRQAPGKGLEWVATISNRGSYTYYPDSVKGRFTISRDNAKNSLYLQMSSLRSEDTALYYCARERPMDYWGQGTSVTVSS VL: DIVMTQSPSFLSASVGDRVTITCKASQDVGTAVAWYQQKPGQPPKLLIYWASTRHTGVPDRFTGSGSGTDFTLTISSLQSEDFAVYFCHQHSSNPLTFGQGTKLEIK ?
OUTPUT: 2.85

INPUT: Quick one: Relative KD of VH2/Vκ1 (antibody, V domains shown) VH: EVQLVESGGGLVKPGGSLRLSCAASGFTFSNYAMSWVRQAPGKGLEWVATISNRGSYTYYPDSVKGRFTISRDNAKNSLYLQMNSLRAEDTALYYCARERPMDYWGQGTLVTVSS VL: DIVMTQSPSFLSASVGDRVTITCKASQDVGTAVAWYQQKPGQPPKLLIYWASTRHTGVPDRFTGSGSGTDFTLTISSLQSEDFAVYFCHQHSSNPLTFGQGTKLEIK ?
OUTPUT: 11.8

INPUT: Quick one: Relative KD of VH2/Vκ2 (antibody, V domains shown) VH: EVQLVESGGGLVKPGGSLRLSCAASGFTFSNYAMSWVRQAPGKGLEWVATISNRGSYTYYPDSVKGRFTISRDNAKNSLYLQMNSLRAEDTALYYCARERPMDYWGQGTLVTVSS VL: DIVMTQSPSTLSASVGDRVTITCKASQDVGTAVAWYQQKPGQPPKLLIYWASTRHTGVPDRFTGSGSGTDFTLTISSLQAEDFAVYFCHQHSSNPLTFGQGTKLEIK ?
OUTPUT: 7.9
